System: MDA-MB-468 breast
RUN_DESCRIPTION: NCI-60 one-dose screen, 48 h
MEASUREMENT_CONDITIONS: 10 µM unless noted
The panel holds about 83,000 compounds, 20% with a hit somewhere; the sample as a whole holds those more often. Active and inactive are the calls of the source. The calls were made as follows: active = growth percent below 10; inactive = the rest.
Possible outcomes: active, inactive

>>> class("c1n[nH]cc1-c1nc2ccc3[nH]ncc3c2c2c1CC1(CC2)COC1")
"active"
>>> class("O=C(N=Nc1c(O)[nH]c2ccc(Br)cc12)c1ccc2nc(-c3ccc(Cl)cc3)[nH]c2c1")
"active"
>>> class("COc1ccc(NC(=O)Cn2c(/C=C/c3cccc(OC)c3)nc3ccccc3c2=O)cc1")
"inactive"
>>> class("Cc1ccc(N=Nc2c(N)nn3c(-c4cc5ccccc5oc4=O)ccnc23)cc1")
"inactive"
>>> class("O=C(NC(=S)N1CCN(c2ncnc3c2cnn3-c2ccccc2)CC1)c1ccc(F)cc1")
"inactive"
>>> class("Nc1nn2c(-c3cc4cc(Br)ccc4oc3=O)ccnc2c1N=Nc1ccc(S(N)(=O)=O)cc1")
"inactive"
>>> class("O=c1ccc(Cn2c(C(F)(F)F)cc3c(Cl)ncnc32)c[nH]1")
"inactive"
>>> class("Cn1cc(-c2cc3nc(-c4cn(C)c5ncc(Br)cc45)cc(N)n3n2)c2cc(F)ccc21")
"active"
>>> class("CC1=C(C(=O)OCc2ccccc2)C(c2cccc3ccccc23)n2c(nc3ccccc32)N1 (centres undefined)")
"active"
>>> class("COc1ccc(N=Nc2c(N)nn3c(-c4ccc5c(c4)C=S=C5)ccnc23)cc1")
"inactive"
>>> class("CN(C)C(=O)c1cc(-c2ccc3ncnc(N4CCc5cc(F)c(Cl)cc54)c3c2)cnc1N")
"active"
>>> class("O=C(COc1ccc(/C=C2/C(=O)Nc3ccc(Cl)cc32)cc1)Nc1ccc(Br)cc1")
"inactive"
>>> class("Fc1ccc(N2CC(Cn3c(C(F)(F)F)cc4c(Cl)ncnc43)C2)c(F)c1")
"active"
>>> class("Cc1cccc(C)c1Nc1nnc(-c2c[nH]c3ccccc23)o1")
"inactive"
>>> class("O=c1[nH]c2ccccc2cc1CSc1ccccc1Nc1nccc(-c2ccc3c(c2)OCO3)n1")
"inactive"
>>> class("Clc1ccccc1Nc1nnc(-c2c[nH]c3ccccc23)o1")
"active"
>>> class("COc1ccc2[nH]c(=O)c(CSc3ccccc3Nc3nccc(-c4ccc(Cl)cc4)n3)cc2c1")
"inactive"
>>> class("C[C@@H]1CN(c2ccc3ncc(C#Cc4cncc(C(=O)Nc5ccc(CN6CCN(C)CC6)c(C(F)(F)F)c5)c4)n3n2)C[C@@H](C)O1")
"active"
>>> class("O=C(NNC(=O)c1ccc(OCc2nc3ccc(Cl)cc3[nH]2)cc1)Nc1ccc(Cl)c(C(F)(F)F)c1")
"inactive"
